Sourced from ChEMBL document CHEMBL4513216

Experiment: Toxicity liver stage against HepG2, at 10uM
Type: cell-based
Design: test concentration 10 uM, cell line HepG2-A16-CD81EGFP
Settings: human, HepG2-A16-CD81EGFP cells; read-out: INHIBITION
reported_endpoint: cytotoxicity at 10 µM (%)

>>> numeric_value("NC(CC1CCCCC1)c1ccccc1 (stereo not drawn)")
-4.8
>>> numeric_value("CN(C)c1ccc(C(=O)N2CCN(C(=O)N3CCCCC3)CC2)nn1")
-9.14
>>> numeric_value("CCOc1ccccc1C1=CCN(C(=O)C2CCN(C)C(=O)C2)CC1 (stereo not drawn)")
2.58
>>> numeric_value("O[C@]1(c2ccccn2)CC[C@@H]2CN(Cc3cccc4ncccc34)C[C@@H]21")
-2.09
>>> numeric_value("CC(C)[C@@H]1CN(c2ccc(C(F)(F)F)cn2)C[C@H]1NS(C)(=O)=O")
8.46
>>> numeric_value("CC(=O)NC1CCCN(c2nc3ccccc3cc2CO)C1 (stereo not drawn)")
-50.1
>>> numeric_value("O=C(NCC1Cn2nnc(-c3ccncc3)c2CO1)c1ccc[nH]1 (stereo not drawn)")
1.6
>>> numeric_value("Cc1cnc(N2CCOC(C(=O)NCc3ccccc3)C2)s1 (stereo not drawn)")
-2.84
>>> numeric_value("CS(=O)(=O)N1CCC(Oc2ccc(C(=O)NCC3CCC3)cc2Cl)CC1")
12
>>> numeric_value("Cc1nc(-c2cccc(C(=O)O)c2)cc(C2CCN(C(C)C)C2)n1 (stereo not drawn)")
5.32
>>> numeric_value("O=S1(=O)NCC2(CCN(c3ncccn3)CC2)COc2ccccc21")
-1.34
>>> numeric_value("Cc1ccoc1C(=O)N1C[C@@H]2[C@@H](C1)OCC(=O)N2Cc1cccnc1")
9.38
>>> numeric_value("CC(C)N(C)C(=O)C1=NOC2(CCN(C(=O)NCc3cccnc3)C2)C1 (stereo not drawn)")
-3.75
>>> numeric_value("CCc1nnc2n1CCN(CC(O)CN1CCC(C)CC1)C2 (stereo not drawn)")
-7.37
>>> numeric_value("CN(CC(=O)NC(C)(C#N)C1CC1)Cc1nc2ccccc2n1C (stereo not drawn)")
-3.72
>>> numeric_value("COCCNC(=O)Cn1ccc2ccc(F)cc21")
2.14
>>> numeric_value("O=C(Cn1cc(-n2cccc2)cn1)NCC1CCC1")
14.7
>>> numeric_value("CN1CCN(C(=O)[C@@H]2C[C@@H]3CCN(c4cccc(F)c4)C[C@H]3O2)CC1")
-6.22
>>> numeric_value("Cc1cccc(C(=O)NCc2cccnc2N(C)C)n1")
0.72
>>> numeric_value("CCCN(CCC)S(=O)(=O)NCCc1cc(C)ccc1OC")
7.75
>>> numeric_value("Cc1cc(C(=O)N2CCN(S(C)(=O)=O)[C@@H](C)C2)c(F)cc1F")
-1.78
>>> numeric_value("Cn1ccc(C(=O)N2CCCC(CNS(C)(=O)=O)C2)cc1=O (stereo not drawn)")
0.193
>>> numeric_value("Cc1cncc(C2CCN(Cc3cccn3C)CC2)n1")
-6.94

----------
Assay: Toxicity liver stage against HepG2, at 10uM
Format: cell-based
Design: test concentration 10 uM, cell line HepG2-A16-CD81EGFP
Conditions: human, HepG2-A16-CD81EGFP cells; read-out: INHIBITION
reported_endpoint: cytotoxicity at 10 µM (%)

>>> numeric_value("COc1ccc(Cl)cc1NC(=O)CN1CCc2nc(NC(C)=O)sc2C1")
-4.2
>>> numeric_value("OCCNc1nccc(-c2c[nH]nc2-c2cccnc2)n1")
-8.22
>>> numeric_value("Cc1ccc(NC2CCN(C(=O)Cc3csc(C)n3)CC2)nn1")
-6.51
>>> numeric_value("C=C(C)CN(c1cn[nH]c1)S(=O)(=O)c1cccc(C#N)c1")
3.84
>>> numeric_value("O=C(NC1CC1)[C@@H]1C[C@@H]2CCN(Cc3ccccc3)C[C@@H]2O1")
-65.8
>>> numeric_value("CCC(=O)N(CCN(C)C)Cc1ccc(F)c(F)c1")
-4.38
>>> numeric_value("Cc1ccn(CCNc2ncnc3c2CCN(S(C)(=O)=O)CC3)n1")
-3.03
>>> numeric_value("COc1ncccc1C(=O)N1CCC(c2nc3c(C)cccc3[nH]2)CC1")
11.7
>>> numeric_value("COc1ccc(OC)c(-c2csc(-c3cccc(C(=O)O)c3)n2)c1")
3.75
>>> numeric_value("O=C(c1ccccc1)N1C[C@H]2CCC[C@@]2(COCc2ccncc2)C1")
1.59
>>> numeric_value("O=C(NCCN1CCOCC1)NCC(O)c1cccc(F)c1 (configuration not stated)")
-9.24
>>> numeric_value("CC(C)c1cc(N2CCN(c3ccc(O)cc3)CC2)n2nccc2n1")
-5.76
>>> numeric_value("Cc1cccc(CN2CCn3cc(Cn4cccn4)nc3C2)n1")
3.27
>>> numeric_value("CN1CCN(S(C)(=O)=O)c2ccc(F)cc21")
-4.12
>>> numeric_value("CC(=O)N1C[C@H]2CNC[C@@]2(C(=O)NCCCOc2cccnc2)C1")
-7.52
>>> numeric_value("CN1CCc2nc(C3CCN(C(=O)CCC4CCCC4)CC3)ncc2C1")
-3.06
>>> numeric_value("Cc1cccn2cc(C[S+]([O-])Cc3noc(C(C)C)n3)nc12 (configuration not stated)")
6.13
>>> numeric_value("c1cn(CC2CC2)c(C2CCN(CCC3CCOC3)CC2)n1 (configuration not stated)")
-8.64
>>> numeric_value("O=C(Cc1cccs1)NCCNc1nccc(C(F)(F)F)n1")
10.9
>>> numeric_value("CC(C)N(Cc1ccccn1)C(=O)CCOc1cccc(F)c1")
4.58
>>> numeric_value("NC1CCN(C2CCN(c3ccc(-c4ccco4)cc3)CC2)CC1")
1.03
>>> numeric_value("Cc1nc(C2CCCN2C(=O)c2cc3c(s2)CCC3)no1 (configuration not stated)")
-6.82
>>> numeric_value("Cn1ccnc1C(NCc1ccccc1)c1ccc(F)cc1 (configuration not stated)")
0.573
>>> numeric_value("CCCOC(=O)N1CCc2cccc(S(=O)(=O)N3CCOCC3)c2C1")
-6.85
>>> numeric_value("N#CCCN(CC1CCOC1)S(=O)(=O)c1cccc(Cl)c1 (configuration not stated)")
3.81
>>> numeric_value("c1cc(CN2CCCC23CCCN(Cc2ccoc2)C3)ccn1 (configuration not stated)")
2.25
>>> numeric_value("Clc1ccccc1-c1nnc(CNCCn2cccn2)o1")
1.4
>>> numeric_value("Cc1ccsc1CCNC(=O)CCC(=O)NC1CCCC1")
-2.98
>>> numeric_value("Cc1noc(C)c1CNCC1CCCN1c1cccnn1 (configuration not stated)")
3.3
>>> numeric_value("COc1ccnc(N2CCN(C(=O)NCc3ccc(C)s3)CC2)n1")
-2.45
>>> numeric_value("CN(Cc1ccc(-n2cccn2)cc1)C[C@@H]1CCCN2CCCC[C@H]12")
0.537
>>> numeric_value("Cc1cnn(CCNc2ncnc3c2CCN(CC2CCOC2)CC3)c1 (configuration not stated)")
-4.24
>>> numeric_value("Cc1cccc(CN2C(=O)C[C@H]3[C@@H]2CCN3CC2CC2)n1")
6.59
>>> numeric_value("Cc1cnc2c(S(=O)(=O)NCC3CCN(C4CC4)C3)cccc2c1 (configuration not stated)")
-6.36
>>> numeric_value("Cc1[nH]c2ccccc2c1-c1ccnc(NC[C@H](O)CO)n1")
8.9
>>> numeric_value("CCn1nc(NC(=O)Cn2ccc(C(C)=O)n2)c2ccccc21")
12.8
>>> numeric_value("O=C(Cn1cc(Cl)cn1)Nc1ccc2c(c1)OCO2")
4.57
>>> numeric_value("O=C(c1ccoc1)N1CCOCC2(CCN(C3CCOCC3)C2)C1 (configuration not stated)")
-6.11
>>> numeric_value("O=C(C1CCC1)N1CC[C@]2(O)CCN(Cc3ncccn3)C[C@@H]2C1")
3.97
>>> numeric_value("CC(CC(=O)N1CCC(c2nnc3n2CCC3)CC1)n1cccc1 (configuration not stated)")
8.11
>>> numeric_value("O=C(O)CCc1cccc(C2CCCN2Cc2ccc(F)c(F)c2)n1 (configuration not stated)")
-5.25
>>> numeric_value("COc1ccc(C(CC(=O)O)NC(=O)CCc2cccs2)cc1OC (configuration not stated)")
-6.33
>>> numeric_value("Cn1ccnc1CN1CCC(c2ccnc(-c3cccc(O)c3)c2)C1 (configuration not stated)")
6.52
>>> numeric_value("CNc1nc(C(=O)N2CCN(c3cc(C)nc(C)c3)CC2)cs1")
3.78
>>> numeric_value("O=C(N1CCN(CCO)CC1)C1(O)Cc2ccccc2C1")
-2.92
>>> numeric_value("CN1CCC(N(Cc2ccco2)S(=O)(=O)c2cc(Br)ccc2Br)CC1")
-17.7
>>> numeric_value("CC(=O)c1ccc(S(=O)(=O)N2CCOC(Cn3ccnc3)C2)cc1 (configuration not stated)")
6.58

----------
Test: Toxicity liver stage against HepG2, at 10uM
Assay type: cell-based
Design: test concentration 10 uM, cell line HepG2-A16-CD81EGFP
Settings: human, HepG2-A16-CD81EGFP cells; read-out: INHIBITION
Each entry below carries its recorded cytotoxicity at 10 µM.
reported_endpoint: cytotoxicity at 10 µM

>>> result("Cc1cc(NCc2cc3n(n2)CCCN(C(=O)N(C)C)C3)ncn1")
"-11.4%"
>>> result("COc1cccnc1NC(=O)COc1ccc(F)cc1F")
"8.68%"
>>> result("CC1CN(Cc2ccccc2)CCCN1CCNS(C)(=O)=O (configuration not stated)")
"-3.72%"
>>> result("CC(C)c1nc(CN2CCCC2Cn2cccn2)no1 (configuration not stated)")
"-0.121%"
>>> result("Cc1ccnc(NC(=O)c2cnc(C3CCCNC3)cn2)c1 (configuration not stated)")
"3.33%"
>>> result("CC(C(=O)N1CCCCC1)N1CCN(c2ncc(Cl)cn2)CC1 (configuration not stated)")
"-4.79%"
>>> result("CN(C(=O)CN1CCC(c2cc3ccccc3[nH]2)CC1)C(C)(C)C#N")
"6.24%"
>>> result("O=C(NCCCN1CCN(c2ncccn2)CC1)NCC1CCCO1 (configuration not stated)")
"-43.1%"
>>> result("O=C(CN1CCc2c(ncn2C2CC2)C1)NC1CCN(C2CC2)CC1")
"-8.44%"
>>> result("O=C(c1cnc(Cc2c(Cl)cccc2Cl)nc1O)N1CCNCC1")
"-3.01%"
>>> result("COc1cccc(CC(=O)NC2CCCc3cn[nH]c32)c1 (configuration not stated)")
"12.5%"
>>> result("CN(C)S(=O)(=O)c1ccc(CN2CCCC2c2ccc[nH]2)o1 (configuration not stated)")
"-4.03%"
>>> result("O=C(NCCc1cccnc1)c1ccc2nccn2c1")
"-38.6%"
>>> result("O=C(Nc1ccc2c(c1)OCO2)N1CCN(CCc2ccccc2)CC1")
"-9.28%"
>>> result("CCCN1CCC(N2CCOC(Cc3cccc(OC)c3)C2)CC1 (configuration not stated)")
"8.69%"
>>> result("CCN(C)c1ccc(CNS(=O)(=O)CC2CCCO2)cc1F (configuration not stated)")
"11.9%"
>>> result("NC(=O)NC(=O)CCN1CCCC1c1nc(C2CCCCC2)co1 (configuration not stated)")
"5.33%"
>>> result("CN(C)c1ccc(NC(=O)N2CCCCCC2c2ccncc2)cn1 (configuration not stated)")
"0.462%"
>>> result("Cc1ccc(CNC(=O)Nc2cc(C(F)(F)F)c[nH]c2=O)cn1")
"-21.8%"
>>> result("CC(Cn1cccn1)NC(=O)N1CCN(Cc2ccco2)CC1 (configuration not stated)")
"-20.6%"
>>> result("Cc1cc(-c2ccc(=O)n(C3CCN(C(=O)C4CCC4)CC3)n2)c(C)o1")
"4.22%"
>>> result("CC(NC(=O)c1ccc(=O)n(C)c1)c1ccc(OCC2CC2)c(F)c1 (configuration not stated)")
"9.8%"
>>> result("COc1ccc(NC(=O)CCc2c(C)nc3cc(O)nn3c2C)cn1")
"-9.21%"
>>> result("CSc1nccn1-c1ccc(C(=O)NCC2CC2)cc1")
"-3.67%"
>>> result("CC(Cc1ccccc1F)C(=O)Nc1cccc(OCC(N)=O)c1 (configuration not stated)")
"-1.34%"
>>> result("COC(=O)c1ccc(N2CCN(CCS(C)(=O)=O)C(C)C2)cc1 (configuration not stated)")
"-5.57%"
>>> result("O=C(COc1ccc(Br)cc1F)Nc1cn[nH]c1")
"-24.1%"
>>> result("CCc1nnc2n1CCN(C(=O)c1cc3c(F)cccc3[nH]1)C2")
"6.41%"
>>> result("COc1c(C)cnc(CNC(=O)CCOCC(C)C)c1C")
"-4.44%"
>>> result("CN(C)CCN1CCN(C(=O)c2ccn(C)c(=O)c2)CC1")
"-4.14%"
>>> result("O=C(N1CCCC1)N1CCC2(CCN(Cc3ccccn3)C2=O)C1 (configuration not stated)")
"3.2%"
>>> result("c1ccc(O[C@@H]2CO[C@@]3(CCCN(CC4CCOCC4)C3)C2)nc1")
"-82.6%"
>>> result("O=C(c1ccncn1)N1C[C@H]2CCC[C@@]2(COCC2CCOCC2)C1")
"-79.2%"
>>> result("CN1C[C@@H](c2cccc(F)c2)[C@H]2[C@H]1CCCCCN2C(=O)C1CC1")
"4.21%"
>>> result("c1ccc(COC2CCN(Cc3cc4n(n3)CCCNC4)CC2)nc1")
"2.59%"
>>> result("CC(=O)N(Cc1ncc(C(C)C)o1)C1CCN(Cc2ncc[nH]2)C1 (configuration not stated)")
"-6.02%"
>>> result("COC(=O)c1ccc(Cn2nc(C)cc2C)cc1")
"10.8%"
>>> result("CCN1CCC2(C=C(C(=O)N(C)C)c3ccccc32)CC1")
"-101%"
>>> result("CCn1c(CC2CCN(C(=O)c3ccnn3C)CC2)n[nH]c1=O")
"-51.1%"
>>> result("COc1ccc(OC)c(S(=O)(=O)NCC2(OC)CCSC2)c1 (configuration not stated)")
"-12.8%"
>>> result("Cc1cc(C)n(CC2CCN(CC(O)COc3ccccc3)CC2)n1 (configuration not stated)")
"-5.58%"
>>> result("Nc1ccc(-c2cc(O)cc(CCC3CCCCN3)c2)cn1 (configuration not stated)")
"-9.66%"
>>> result("CC1CCCN(c2ccc(C(N)=O)cc2NC(=O)CC2=CCNCC2)C1 (configuration not stated)")
"-46.3%"
>>> result("Cn1nc(CN2CCCCC2)c2c1CN(C(=O)c1ccoc1)C2")
"2.83%"
>>> result("N#CC1(NC(=O)c2ccc(-c3nc(C4CC4)n[nH]3)cc2)CC1")
"-10.7%"
>>> result("Cc1ccc(C(CNC(=O)NCc2cc[nH]n2)N2CCOCC2)o1 (configuration not stated)")
"-8.78%"
>>> result("CC(=O)N1CCC(c2cccc(Oc3ccccc3)n2)CC1")
"-0.0757%"
